Listing of recorded half-life by entry.
# method: Chemical stability in aqueous solution (half-life)
# Type: physicochemical
# conditionContext: citric acid buffer, pH 2, 37°C, pH 2.0 citric acid buffer, by hplc; read-out: t1/2, pH 2

{"columns": ["compound", "readoutUnits", "relationalOperator", "half-life"],
 "data": [
  ["C[C@@H](N)[C@H]1C(=O)N2C(C(=O)O)=C(SCc3cn(C)nn3)[C@H](C)[C@H]12 [Procedure 15]", "h", "=", 2.4],
  ["CSC1=C(C(=O)O)N2C(=O)[C@H]([C@@H](C)NC(=O)CNC(=O)[C@H](C)N)[C@H]2[C@H]1C [Procedure 38]", "h", "<", 0.0833],
  ["CCSC1=C(C(=O)O)N2C(=O)[C@H]([C@@H](C)N)[C@H]2[C@H]1C [Procedure 7]", "h", "=", 2.8],
  ["CSC1=C(C(=O)O)N2C(=O)[C@H]([C@@H](C)NC(=O)[C@H](CC(C)C)NC(=O)[C@H](C)N)[C@H]2[C@H]1C [Procedure 39]", "h", "<", 0.0833],
  ["C[C@@H](N)[C@H]1C(=O)N2C(C(=O)O)=C(SCCC#N)[C@H](C)[C@H]12 [Procedure 26]", "h", "=", 2.93],
  ["C[C@@H](N)[C@H]1C(=O)N2C(C(=O)O)=C(SCc3ccccn3)[C@H](C)[C@H]12 [Procedure 18]", "h", "=", 2],
  ["CSC1=C(C(=O)O)N2C(=O)[C@H]([C@@H](C)N)[C@H]2[C@H]1C [Procedure 9]", "h", "=", 3.53],
  ["C[C@@H](N)[C@H]1C(=O)N2C(C(=O)O)=C(SCc3cccnc3)[C@H](C)[C@H]12 [Procedure 21]", "h", "=", 2.4]
]}

Data provenance: patent EP0372582A2
